# study-target: Nucleoprotein (Lymphocytic choriomeningitis virus (strain Armstrong)) (UniProt P09992)
# Sequence (P09992 whole entry, looked up): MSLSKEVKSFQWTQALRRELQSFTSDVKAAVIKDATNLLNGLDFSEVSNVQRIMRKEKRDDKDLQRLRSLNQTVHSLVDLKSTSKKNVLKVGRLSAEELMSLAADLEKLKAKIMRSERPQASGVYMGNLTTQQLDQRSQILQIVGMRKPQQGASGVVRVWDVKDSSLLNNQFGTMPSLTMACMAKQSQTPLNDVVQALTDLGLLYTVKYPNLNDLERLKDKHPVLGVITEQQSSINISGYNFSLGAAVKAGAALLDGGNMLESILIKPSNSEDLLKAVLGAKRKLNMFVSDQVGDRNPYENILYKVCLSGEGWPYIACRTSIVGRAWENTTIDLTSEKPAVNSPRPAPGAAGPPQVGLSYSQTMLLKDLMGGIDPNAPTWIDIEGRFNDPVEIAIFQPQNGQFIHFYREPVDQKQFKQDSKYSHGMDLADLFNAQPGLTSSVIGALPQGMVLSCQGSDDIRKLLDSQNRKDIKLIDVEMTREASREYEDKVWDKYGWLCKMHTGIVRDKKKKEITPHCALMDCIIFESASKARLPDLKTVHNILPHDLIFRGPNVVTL
# method-summary: qHTS for Inhibitors of the Functional Ribonucleoprotein Complex (vRNP) of Lymphocytic Choriomeningitis Arenaviruses (LCMV): LCMV Primary Screen - GLuc reporter signal (AID 1347086); note: nearly all actives have a fitted effect of over 70% in size
# condition-context: LCMV minigenome vRNP cell assay, Gaussia luciferase reporter; series mostly up to 57.5 µM
Results filed as inconclusive are left out. Active and inactive are the calls of the source. Calls come from the whole dose curve.
Labels: yes for active, no for inactive

>>> answer_label("CCCCCCCCCC[Si](C)(C)CCC(=O)NC(Cc1ccc(C)cc1)c1ccccc1 (stereo not given)")
"no"
>>> answer_label("C[C@H](NC(=O)C(C#N)=Cc1cccc(Br)n1)c1ccccc1")
"no"
>>> answer_label("Nc1nc2c(c(=O)[nH]1)N(C=O)[C@H](CNc1ccc(C(=O)N[C@@H](CCC(=O)O)C(=O)O)cc1)CN2")
"no"
>>> answer_label("COc1ccc([C@H]2c3cc(OC)c(OC)cc3C[C@@H](C)[C@@H]2C)cc1OC")
"no"
>>> answer_label("COc1cc(C/C=C\\c2ccccc2)c(OC)cc1O")
"no"
>>> answer_label("CN1CC[C@@]2([C@@]34CCN(C)C3Nc3ccccc34)c3ccccc3NC12 (stereo not given in full)")
"no"
>>> answer_label("CN1CCc2cc(O)c(O)cc2C(c2ccccc2)C1 (stereo not given)")
"no"
>>> answer_label("O=c1[nH]c(=O)n([C@H]2C[C@@H](O)[C@@H](CO)O2)cc1C(F)(F)F")
"no"
>>> answer_label("C=C[C@](C)(O)CC[C@@H]1[C@@]2(C)CCCC(C)(C)[C@@H]2CC[C@@]1(C)O")
"no"
>>> answer_label("CC(=O)OC[C@@]12C(=O)[C@@H](O)[C@@H](C)[C@]3(C[C@@H](c4ccoc4)O[C@@H]3OC(C)=O)[C@H]1CCC[C@]21CO1")
"no"
>>> answer_label("COc1cc2c(c(OC)c1OC)-c1c(cc3c(c1OC)OCO3)CC(C)C(C)(O)C2OC(=O)c1ccccc1 (stereo not given)")
"no"
>>> answer_label("CC(CC=O)CCCC(C)(C)O (stereo not given)")
"no"
>>> answer_label("C[C@H]1C[C@@H]2[C@@H]([C@@H](O)C[C@@]3(C)[C@H]2CC[C@]3(O)C(=O)CO)[C@@]2(C)C=CC(=O)C=C12")
"no"
>>> answer_label("COC1=CC(=O)OC(CCc2ccc3c(c2)OCO3)C1 (stereo not given)")
"no"
>>> answer_label("CNCCO")
"no"
>>> answer_label("C[C@]1(c2nc3c(C(N)=O)cccc3[nH]2)CCCN1")
"no"
>>> answer_label("NC(=NCc1ccccc1)NC(=O)c1nc(Cl)c(N)nc1N")
"no"
>>> answer_label("C=CC(=O)Nc1ccc2ncnc(Nc3ccc(OCc4cccc(F)c4)c(Cl)c3)c2c1")
"yes"
>>> answer_label("CCC(=O)O[C@]1(C(=O)CO)CC[C@H]2[C@@H]3CCC4=CC(=O)CC[C@]4(C)[C@@H]3CC[C@@]21C")
"no"
>>> answer_label("C[C@]12CCC(=O)C[C@@H]1CC[C@@H]1[C@@H]2CC[C@]2(C)C=CC[C@@H]12")
"no"

###

# System: PA-1
# method-summary: Primary qHTS to identify gynecologic anti-cancer compounds using libraries of approved drugs and bioactive compounds (AID 1345084); note: nearly all actives have a fitted effect of over 55% in size
# condition-context: Gynecologic cancer cell panel viability, ATPlite luminescence, 48 h; series mostly up to 57.5 µM
Records with an inconclusive call do not appear. Activity calls are given as the source filed them. Calls follow the shape of the dose curve; as a rule, active = well fitted cell-killing curve with a large enough effect; inconclusive = small, poorly fitted or top-dose-only effect, or effect the other way; inactive = flat fitted curve, though single readings scatter. *1 amine or outer side, *2 acyl side, *3 side chain or, on linkers, in order; H or OH if unused. Where a SMILES comes first, the peptide text is derived from it. [ ]: non-standard residue; d: D form. X5 = CC(CC(O[*:1])C(=O)[*:2])C(=O)O; NMeV = CN[CH](C(=O)O)C(C)C; NMeA = CN[CH](C)C(=O)O; βAla = NCCC(=O)O
Labels: yes (active), no (inactive)

>>> answer_label("COc1cc(O)c2c(c1)CCC[C@@H](O)[C@H](O)C(=O)/C=C\\C[C@H](C)OC2=O")
"no"
>>> answer_label("CCC(C)C1NC(=O)C2CCCN2C(=O)C(CC(C)C(=O)O)OC(=O)CCNC(=O)C(C)N(C)C(=O)C(C(C)C)N(C)C1=O (configuration not stated) (cyclo([X5]PI[NMeV][NMeA][βAla]); configuration not given here)")
"no"
>>> answer_label("CN1C(=O)N(c2ccc(C#N)c(C(F)(F)F)c2)C(=O)[C@@]1(CO)c1ccccc1")
"no"
>>> answer_label("CC12Cc3cn[nH]c3C=C1CCC1C2CCC2(C)C1CCC2(C)O (configuration not stated)")
"no"
>>> answer_label("COc1ccc2c3c4n(c2c1)[C@@H](C=C(C)C)OOC(C)(C)C[C@@H]4N1C(=O)[C@@H]2CCCN2C(=O)[C@]1(O)[C@H]3OCC=C(C)C")
"no"
>>> answer_label("CN1C(=O)[C@]23CC4C(C)(C)[C@@]5(C[C@@]41CN2CC[C@@]3(C)O)C(=O)Nc1c5ccc2c1OC=CC(C)(C)O2 (some centres not stated)")
"no"
>>> answer_label("O=C1N[C@@H](Cc2ccccc2)CN2CCCC[C@@H]12")
"no"
>>> answer_label("CCOC(=O)C1(CCc2ccccc2)CCN(Cc2ccc(NC(C)=O)cc2)CC1")
"no"
>>> answer_label("c1cncc(OC[C@@H]2CCN2)c1")
"no"
>>> answer_label("CN=C(NS(=O)(=O)c1ccc(Cl)cc1)N1C[C@H](c2ccccc2)C(c2ccc(Cl)cc2)=N1")
"no"
>>> answer_label("COc1ccc(CN(C(=O)[C@@H](N)Cc2c(C)cc(C(N)=O)cc2C)[C@@H](C)c2ncc(-c3ccccc3)[nH]2)cc1C(=O)O")
"no"
>>> answer_label("CCOc1ccc(Oc2ccc(OCc3cc(F)ccc3F)cc2)c(N)c1")
"no"
>>> answer_label("CC(=O)C1CCC2C3CCC4C[C@@H](O)CCC4(C)C3CCC12C (some centres not stated)")
"no"
>>> answer_label("CC(C)(C)[C@]1(O)C[C@@H]2OC(=O)C[C@@]23C(=O)O[C@@H]2OC(=O)[C@@H](O)[C@]213")
"no"
>>> answer_label("CC1=CC(=O)[C@@H](O)[C@]2(C)C3[C@@H](O)[C@@H]4OC(=O)[C@@H]([C@H]4C)[C@]3(C)C(=O)C[C@@H]12 (some centres not stated)")
"yes"
>>> answer_label("FC(F)(F)c1ccc(N2CCNCC2)nc1Cl")
"no"
>>> answer_label("CN(C(=O)C(c1ccccc1)c1ccccc1)[C@H](CN1CC[C@H](O)C1)c1ccccc1")
"no"

###

Each record here notes measured Potency.
# Test system: Tov-21-G
# method-summary: Primary qHTS to identify gynecologic anti-cancer compounds using libraries of approved drugs and bioactive compounds (AID 1345084); note: nearly all actives have a fitted effect of over 55% in size; note: potency is the fitted concentration of half-maximal effect
# condition-context: Gynecologic cancer cell panel viability, ATPlite luminescence, 48 h; series mostly up to 57.5 µM
Inconclusive results are not listed. Activity calls are given as the source filed them. The call rests on the fitted dose curve; in most records, active means well fitted cell-killing curve with a large enough effect; inconclusive means small, poorly fitted or top-dose-only effect, or effect the other way; inactive means flat fitted curve, though single readings scatter.
parameter-measured: Potency

>>> val("COC1C(O)C(C)OC(OC2C(CO)O[C@@H](O[C@@H]3CC4CCC5C(CC[C@]6(C)[C@@H](C7=CC(=O)OC7)CC[C@]56O)[C@@]4(C)[C@H](OC(C)=O)C3)C(O)C2O)C1O (stereo partly drawn)")
"3550 nM (active)"
>>> val("CC(=O)O[C@H]1C[C@]2(O)[C@@H]3CC[C@@H]4C[C@@H](O)CC[C@]4(C)[C@H]3CC[C@]2(C)[C@H]1c1ccc(=O)oc1")
"89.1 nM (active)"
>>> val("CC1=C[C@H]2O[C@@H]3C[C@H]4OC(=O)/C=C/C=C/C(=O)OCC/C(C)=C/C(=O)OC[C@@]2(CC1)[C@]4(C)[C@]31CO1")
"89.1 nM (active)"

###

# method-summary: Tertiary RLuc qRT-PCR qHTS assay for Zika virus inhibitors (AID 1347169); note: nearly all actives have a fitted effect of over 55% in size
# condition-context: infected Vero cells, reporter luminescence, 48-72 h; series mostly up to 45.9 µM
Inconclusive results are not listed. Calls of active or inactive are those of the source. The call rests on the fitted dose curve; in most records, active means well fitted inhibition curve with a large enough effect; inconclusive means small, poorly fitted or top-dose-only effect; inactive means no such curve, though single readings can be large or run the other way.
Labels: YES for active, NO for inactive

>>> answer_label("CNc1ccc2oc(C[C@H]3O[C@@]4(CC[C@H]3C)O[C@H](C(C)C(=O)c3ccc[nH]3)[C@H](C)C[C@H]4C)nc2c1C(=O)O (stereo not given in full)")
"YES"
>>> answer_label("C[C@H]1O[C@@H](O[C@H]2[C@@H](O)C[C@H](O[C@H]3[C@@H](O)C[C@H](O[C@H]4CC[C@]5(C)C6CC[C@]7(C)[C@@H](C8=CC(=O)OC8)CC[C@]7(O)C6CC[C@@H]5C4)O[C@@H]3C)O[C@@H]2C)C[C@H](O)[C@@H]1O (stereo not given in full)")
"YES"
>>> answer_label("C=CCN1CCC2(C)c3cc(O)ccc3C[C@H]1[C@H]2C")
"NO"
>>> answer_label("Ic1cncc(OC[C@@H]2CCN2)c1")
"NO"
>>> answer_label("CN1CC[C@@]23CCCCC2C1Cc1ccc(O)cc13 (stereo not given in full)")
"NO"
>>> answer_label("C[C@H]1[C@H]2Cc3ccc(O)cc3[C@]1(C)CCN2CCc1ccccc1")
"YES"
>>> answer_label("CO[C@H]1[C@@H](O)CC(OC2[C@@H](O)CC(OC3[C@@H](O)C[C@H](OC4CC[C@@]5(C)C(CCC6C5CC(O)[C@]5(C)[C@H](C7=CC(=O)OC7)CCC65O)C4)O[C@@H]3C)O[C@@H]2C)O[C@@H]1C (stereo not given in full)")
"YES"
>>> answer_label("C[C@@H]1O[C@@H](O[C@H]2C[C@@H](O)[C@]3(CO)C4C(CC[C@]3(O)C2)[C@@]2(O)CC[C@H](C3=CC(=O)OC3)[C@@]2(C)C[C@H]4O)[C@H](O)[C@H](O)[C@H]1O (stereo not given in full)")
"YES"
>>> answer_label("CC1OC(O[C@H]2C[C@@H](O)[C@]3(CO)[C@H]4[C@H](O)C[C@]5(C)[C@@H](C6=CC(=O)OC6)CC[C@]5(O)[C@@H]4CC[C@]3(O)C2)C(O)C(O)C1O (stereo not given in full)")
"YES"
>>> answer_label("CN1CC[C@@]23CCCC[C@@H]2[C@@H]1Cc1ccc(O)cc13")
"NO"
>>> answer_label("Clc1cncc(N2CCNCC2)n1")
"NO"
>>> answer_label("C[C@H]1O[C@@H](O[C@H]2[C@@H](O)C[C@@H](O[C@H]3[C@@H](O)C[C@H](O[C@H]4CC[C@@]5(C)[C@H](CC[C@@H]6[C@@H]5CC[C@]5(C)[C@@H](C7=CC(=O)OC7)CC[C@]65O)C4)O[C@@H]3C)O[C@@H]2C)C[C@H](O)[C@@H]1O")
"YES"
>>> answer_label("CC(C)OC(=O)Nc1ccccc1")
"NO"
>>> answer_label("CC1O[C@@H](O[C@@H]2C(O)C[C@H](O[C@@H]3C(O)C[C@@H](OC4CC[C@@]5(C)C6CC[C@]7(C)C(C8=CC(=O)OC8)CC[C@@]7(O)C6CC[C@@H]5C4)OC3C)OC2C)CC(O)[C@H]1O (stereo not given in full)")
"YES"
>>> answer_label("C=CCN1CCC2(C)c3cc(O)ccc3CC1C2C (stereo not given)")
"NO"
